Listing of recorded pIC50 by entry.
- subject.of.test: Histone deacetylase 3 (Homo sapiens)
- Sequence (O15379 whole entry): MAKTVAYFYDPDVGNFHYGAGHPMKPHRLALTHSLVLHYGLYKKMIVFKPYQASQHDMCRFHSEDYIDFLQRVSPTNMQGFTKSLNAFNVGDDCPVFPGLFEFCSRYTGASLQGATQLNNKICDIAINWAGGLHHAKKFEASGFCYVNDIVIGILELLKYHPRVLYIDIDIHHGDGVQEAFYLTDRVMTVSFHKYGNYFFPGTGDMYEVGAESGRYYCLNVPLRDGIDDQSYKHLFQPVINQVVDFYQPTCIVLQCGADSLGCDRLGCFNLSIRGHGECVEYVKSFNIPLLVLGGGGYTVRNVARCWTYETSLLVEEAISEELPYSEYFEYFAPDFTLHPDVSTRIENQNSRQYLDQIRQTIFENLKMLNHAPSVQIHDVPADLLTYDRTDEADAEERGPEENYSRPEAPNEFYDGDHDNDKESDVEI
pIC50: −log10 of the molar value.
readout.type: pIC50

• CN(C)Cc1ccc(C(=O)Nc2cc(-c3ccccc3)ccc2N)cc1 = 5.28
• [11CH3]n1cc(CCNCc2ccc(/C=C/C(=O)NO)cc2)c2ccccc21 = 9.40
• O=C(CCCCCn1cc(-c2ccc(C(=O)c3c(-c4ccc(O)cc4)sc4cc(O)ccc34)cc2)nn1)NO = 6.13
• O=C(CCCCCCNC(=O)c1c(-c2ccc(O)cc2)sc2cc(O)ccc12)NO = 6.89

###

- subject.of.test: Histone deacetylase
- Format: protein assay, Homo sapiens
readout.type: IC50 (µM)

* CC1(C)C(=O)N(c2ccc(C#N)c(C(F)(F)F)c2)C(=O)N1Cc1ccc(-c2cn(CCCCCCC(=O)NO)nn2)cc1 | 0.69
* CCc1nnc(NS(=O)(=O)c2ccc(N/C=C3\Sc4ccccc4C3=O)cc2)s1 | 4.2
* CCc1nnc(NS(=O)(=O)c2ccc(Nc3nc(C)c(C(=O)Nc4ccccc4)s3)cc2)s1 | 32
* CC[N+]1=C(/C=C/C=C/C=C2/N(CCCCC(=O)N(CCc3c(C)[nH]c4ccccc34)Cc3ccc(/C=C/C(=O)NO)cc3)c3ccc4c(S(=O)(=O)O)cc(S(=O)(=O)O)cc4c3C2(C)C)C(C)(C)c2c1ccc1c(S(=O)(=O)[O-])cc(S(=O)(=O)O)cc21 | 0.0096
